A collection of compounds and their measured Mean NFκB response
test system: NF-κB activity in HEK293 NF-κB reporter cells; test: NF-kB activity assay (GFP reporter, ionomycin/PMA); format: cell-based; conditions: 1 µM, 24 h, n=3

| compound | Mean NFκB response |
| --- | --- |
| C[C@]1(O)CC[C@H]2[C@@H]3CCC4=CC(=O)CCC4=C3C=C[C@@]21C [Methyltrienolone] | 38486.67 GFP+-cells/confluence ∙ 1000 |
| C[C@]12CC[C@@H]3c4ccc(O)cc4C[C@@H](CCCCCCCCC[S+]([O-])CCCC(F)(F)C(F)(F)F)[C@H]3[C@@H]1CC[C@@H]2O (some centres unmarked) [Fulvestrant] | 10080.00 GFP+-cells/confluence ∙ 1000 |
| COc1cc(/C=C(\C#N)C(=O)Nc2nnc(C(F)(F)F)s2)ccc1OCc1ccc(C(F)(F)F)cc1C(F)(F)F [XCT790] | 39596.67 GFP+-cells/confluence ∙ 1000 |
| CCCc1c(-c2ccc(O)cc2)nn(-c2ccc(O)cc2)c1-c1ccc(O)cc1 [Propylpyrazoletriol] | 40840.00 GFP+-cells/confluence ∙ 1000 |
| O=S(=O)(Cc1ccccc1)Nc1ccc(-c2ccc3c(cnn3-c3ccc(F)cc3)c2)c(C(F)(F)F)c1 [GSK9027] | 16630.14 GFP+-cells/confluence ∙ 1000 |
| N#Cc1ccc([C@H]2CCCC[C@H]2O)cc1C(F)(F)F [PF-998425] | 36873.33 GFP+-cells/confluence ∙ 1000 |
| COc1ccc2c(c1)OC(C)(C)C(c1ccccc1)C2c1ccc(OCCN2CCCC2)cc1 (centres unmarked) [Ormeloxifene] | 45591.11 GFP+-cells/confluence ∙ 1000 |
| Oc1ccc(-c2nc3cc(O)cc(Br)c3o2)cc1 [WAY200070] | 43256.26 GFP+-cells/confluence ∙ 1000 |
| N#Cc1ccc(N2N=C3c4ccc(C(=O)O)cc4CC[C@@H]3[C@@H]2C2CCCC2)cc1Cl [PF-03882845] | 40546.67 GFP+-cells/confluence ∙ 1000 |
| C[C@H]1C[C@H]2[C@@H]3CCC4=CC(=O)C=C[C@]4(C)[C@@]3(Cl)[C@@H](O)C[C@]2(C)[C@@]1(O)C(=O)CO [Beclomethasone] | 19467.95 GFP+-cells/confluence ∙ 1000 |
| CC(=O)Nc1ccc(OC[C@](C)(O)C(=O)Nc2ccc([N+](=O)[O-])c(C(F)(F)F)c2)cc1 [Andarine] | 19523.33 GFP+-cells/confluence ∙ 1000 |

From: paper PMC11790914
